Tested on: E. coli TESEC Mtb DapB
test_method_notes: growth (OD600 after 10 h); higher = more growth (less inhibition)
run_parameters: arabinose induction (level): Low; compound 0.1 mM; raw OD600 reference: median of DMSO wells 0.227, cell-free background 0.041
Where a name gives a salt, the structure may show the parent alone.
Measured growth, listed per entry.
assay_readout: growth

compound	assay_readout	observed_value
CCN1CCCC1CNC(=O)c1cc(S(N)(=O)=O)ccc1OC (stereo not drawn) [Sulpiride]	growth	0.253
NS(=O)(=O)c1cc(C(=O)O)c(NCc2ccco2)cc1Cl [Furosemide]	growth	0.194
CN1CCN2c3ccccc3Cc3ccccc3C2C1 (stereo not drawn) [Mianserine hydrochloride]	growth	0.243
CC(C)(C)c1ccc(C(O)CCCN2CCC(C(O)(c3ccccc3)c3ccccc3)CC2)cc1 (stereo not drawn)	growth	0.239
C=CCOC(Cn1ccnc1)c1ccc(Cl)cc1Cl (stereo not drawn)	growth	0.0764
CCC(NC(C)C)C(O)c1ccc(O)c(O)c1 (stereo not drawn) [Isoetharine mesylate salt]	growth	0.226
CC1(C)S[C@@H]2[C@H](NC(=O)[C@H](C(=O)O)c3ccsc3)C(=O)N2[C@H]1C(=O)O [Ticarcillin sodium]	growth	0.196
OCCN1CCN(CCCN2c3ccccc3Sc3ccc(Cl)cc32)CC1	growth	0.0954
COC(=O)Nc1nc2cc([S+]([O-])c3ccccc3)ccc2[nH]1 (stereo not drawn)	growth	0.174
COc1ccc2[nH]cc(CCNC(C)=O)c2c1	growth	0.23
CCCCOC(=O)c1ccc(O)cc1	growth	0.207
NC[C@@H]1O[C@@H](O[C@H]2[C@H](O)[C@@H](O[C@H]3O[C@H](CO)[C@@H](O)[C@H](N)[C@H]3O)[C@H](N)C[C@@H]2N)[C@@H](O)[C@H](O)[C@H]1O [Kanamycin A sulfate]	growth	0.28
CC(=O)O[C@H]1C(=O)[C@@]2(C)[C@H]([C@H](OC(=O)c3ccccc3)[C@]3(O)C[C@H](OC(=O)[C@H](O)[C@@H](NC(=O)c4ccccc4)c4ccccc4)C(C)=C1C3(C)C)[C@]1(OC(C)=O)CO[C@@H]1C[C@@H]2O	growth	0.279
Nc1cc(C(Cl)=C(Cl)Cl)c(S(N)(=O)=O)cc1S(N)(=O)=O	growth	0.248
NS(=O)(=O)c1cc(C(=O)O)cc(N2CCCC2)c1Oc1ccccc1 [Piretanide]	growth	0.245
CCC(C)n1ncn(-c2ccc(N3CCN(c4ccc(OCC5COC(Cn6cncn6)(c6ccc(Cl)cc6Cl)O5)cc4)CC3)cc2)c1=O (stereo not drawn)	growth	0.217
Clc1cc(Cl)c(OCC#CI)cc1Cl	growth	0.259
C[N+](C)(CCOc1ccccc1)Cc1ccccc1.O=C([O-])c1cc2ccccc2cc1O [Bephenium hydroxynaphthoate]	growth	0.216
CCOC(=O)[C@H](CCc1ccccc1)N[C@H]1CCc2ccccc2N(CC(=O)O)C1=O [Benazepril HCl]	growth	0.24
CN1CCc2cccc3c2[C@H]1Cc1ccc(O)c(O)c1-3 [R(-) Apomorphine hydrochloride hemihydrate]	growth	0.174
NC(=O)C(c1ccccc1)(c1ccccc1)[C@@H]1CCN(CCc2ccc3c(c2)CCO3)C1 [Darifenacin hydrobromide]	growth	0.205
CNCCCN1c2ccccc2CCc2ccccc21 [Desipramine hydrochloride]	growth	0.202
CN(CCCCCCCCCCN(C)C(=O)Oc1cccc([N+](C)(C)C)c1)C(=O)Oc1cccc([N+](C)(C)C)c1 [Demecarium bromide]	growth	0.0493

* * *

Tested on: E. coli TESEC Mtb Asd
test_method_notes: growth (OD600 after 10 h); higher = more growth (less inhibition)
run_parameters: arabinose induction (level): Low; compound 0.1 mM; raw OD600 reference: median of DMSO wells 0.417, cell-free background 0.041
Counter-ions that a name gives are not always drawn.

compound	growth
CN(C)CCCSC(=N)N [Dimaprit dihydrochloride]	0.409
Nc1ccc(S(=O)(=O)NC(=O)c2ccccc2)cc1 [Sulfabenzamide]	0.409
C=CC(N)CCC(=O)O (centres undefined)	0.389
Clc1ccc(C(Cn2ccnc2)OCc2csc3c(Cl)cccc23)c(Cl)c1 (centres undefined) [Sertaconazole nitrate]	0.0635
CCOC(=O)C1=C(COCCN)NC(C)=C(C(=O)OC)C1c1ccccc1Cl (centres undefined)	0.136
COc1ccccc1Oc1c(NS(=O)(=O)c2ccc(C(C)(C)C)cc2)nc(-c2ncccn2)nc1OCCO	0.335
CN(C)CCCC1(c2ccc(F)cc2)OCc2cc(C#N)ccc21 (centres undefined) [Citalopram Hydrobromide]	0.397
COc1cc([S+](C)[O-])ccc1-c1nc2cccnc2[nH]1 (centres undefined)	0.387
NS(=O)(=O)c1cc2c(cc1Cl)NC(C(Cl)Cl)NS2(=O)=O (centres undefined) [Trichlormethiazide]	0.448

* * *

Tested on: E. coli TESEC Mtb Alr
test_method_notes: growth (OD600 after 10 h); higher = more growth (less inhibition)
run_parameters: arabinose 10000 nM; compound 0.1 mM; raw OD600 reference: median of DMSO wells 0.264, cell-free background 0.041
Counter-ions that a name gives are not always drawn.
Assign class by growth: not lower than 0.2 means YES; lower than 0.2 means NO.

compound	class_assignment
CNCCc1ccccn1 [Betahistine mesylate]	YES
N=C(N)N1CCc2ccccc2C1 [Debrisoquin sulfate]	YES
CCCCC[C@H](O)/C=C/[C@H]1[C@H](O)CC(=O)[C@@H]1CCCCCCC(=O)O	YES
CC1(O)CCOC(=O)C1 (centres undefined)	YES
CCN(CC)CCNc1ccc(CO)c2sc3ccccc3c(=O)c12	NO
CO[C@H]1/C=C/O[C@@]2(C)Oc3c(C)c(O)c4c(O)c(c(/C=N/N5CCN(C6CCCC6)CC5)c(O)c4c3C2=O)NC(=O)/C(C)=C\C=C\[C@H](C)[C@H](O)[C@@H](C)[C@@H](O)[C@@H](C)[C@H](OC(C)=O)[C@@H]1C	NO
CO[C@@H]1[C@@H](OC(N)=O)[C@@H](O)[C@H](Oc2ccc3c(O)c(NC(=O)c4ccc(O)c(CC=C(C)C)c4)c(=O)oc3c2C)OC1(C)C [Novobiocin sodium salt]	NO
CCCCCCCN(CC)CCCC(O)c1ccc(NS(C)(=O)=O)cc1 (centres undefined) [Ibutilide fumarate]	YES
COc1ccc(-c2cc(=S)ss2)cc1	YES
N=C(N)NCCN1CCCCCCC1 [Guanethidine sulfate]	YES
CN(C)CCN(Cc1cccs1)c1ccccn1 [Methapyrilene hydrochloride]	YES
CCCCOc1cc(C(=O)OCCN(CC)CC)ccc1N [Benoxinate hydrochloride]	YES
NCc1ccc(S(N)(=O)=O)cc1 [Mafenide hydrochloride]	YES
C#C[C@]1(O)CC[C@H]2[C@@H]3CCC4=CCCC[C@@H]4[C@H]3CC[C@@]21C	YES
O=C(C1CCCCC1)N1CC(=O)N2CCc3ccccc3C2C1 (centres undefined)	YES
CCc1cc(Cl)c(OC)c(C(=O)NC[C@@H]2CCCN2CC)c1O [S(-)Eticlopride hydrochloride]	YES
CC(C)(C)C(=O)OCOC(=O)[C@@H]1N2C(=O)[C@@H](NC(=O)[C@H](N)c3ccccc3)[C@H]2SC1(C)C	YES
CCC[C@@H]1C[C@@H](C(=O)N[C@@H]([C@H]2O[C@H](SC)[C@H](O)[C@@H](O)[C@H]2O)[C@H](C)Cl)N(C)C1 [Clindamycin hydrochloride]	NO
O=C1[C@H](CC[C@H](O)c2ccc(F)cc2)[C@@H](c2ccc(O)cc2)N1c1ccc(F)cc1	NO
O=C(CCCCCCC(=O)Nc1ccccc1)NO	YES
CCCCCN(C)CCC(O)(P(=O)(O)O)P(=O)(O)O [Ibandronate sodium]	YES
Clc1ccccc1CN1CCc2sccc2C1 [Ticlopidine hydrochloride]	NO
Nc1ccc(C(=O)NCC(=O)O)cc1	YES
Cc1c(Cl)cccc1Nc1ncccc1C(=O)O [Clonixin Lysinate]	NO

* * *

Test system: E. coli TESEC Mtb Alr
test_method_notes: growth (OD600 after 10 h); higher = more growth (less inhibition)
run_parameters: arabinose 1000000 nM; compound 0.1 mM; raw OD600 reference: median of DMSO wells 0.193, cell-free background 0.041
Structures can show the parent of a compound that is named as a salt.

compound	growth
CN1C2CCCC1CC(NC(=O)c1nn(C)c3ccccc13)C2 (stereo unspecified) [Granisetron]	0.213
CCOC(=O)O[C@]1(C(=O)COC(=O)CC)CC[C@H]2[C@@H]3CCC4=CC(=O)C=C[C@]4(C)[C@H]3[C@@H](O)C[C@@]21C [Prednicarbate]	0.199
CCC(=O)O[C@@H](O[P@](=O)(CCCCc1ccccc1)CC(=O)N1C[C@H](C2CCCCC2)C[C@H]1C(=O)O)C(C)C [Fosinopril]	0.0879
CN(C)CCOC(=O)COc1ccc(Cl)cc1 [Meclofenoxate hydrochloride]	0.184
C[C@@](Cc1ccc(O)c(O)c1)(NN)C(=O)O [Carbidopa]	0.0919
O=C1c2cccc3c2[C@H](CCC3)CN1[C@@H]1CN2CCC1CC2 [Palonosetron hydrochloride]	0.165
C[n+]1ccccc1/C=N/O [Pralidoxime chloride]	0.177
O=C(O)Cc1ccc(-c2ccccc2)cc1 [Felbinac]	0.173
N/C(=N\C(=O)c1nc(Cl)c(N)nc1N)NCc1ccccc1 [Benzamil hydrochloride]	0.111
COc1ccc(CN2CCN(C(c3ccc(F)cc3)c3ccc(F)cc3)CC2)c(OC)c1OC [Lomerizine hydrochloride]	0.0576
Cc1nc2ccccn2c(=O)c1CCN1CCC(C(=O)c2ccc(F)cc2)CC1 [Pirenperone]	0.178
